Reference source: PubChem BioAssay

Experiment: human hepatoma cell viability loss – ATP luminescence, cytotoxicity control for P. falciparum antimalarial project, primary screen (AID 2303);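 further: 0% = DMSO wells and 100% = digitonin-killed cells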
Settings: HepG2 viability, 24-48 h, at 10 µM, active compounds read high
Reported Endpoint: inhibition (%)
Numbers only here, please. The scale is %.

Looking up Cc1ccc(C(=O)Nc2ccc(Cl)c(N3CCN(CCc4ccccc4)CC3)c2)cc1 , I see its inhibition listed as 17

Looking up Cc1ccc(-c2csc(C)n2)c(C)c1 , I see its inhibition listed as 12

Looking up COc1cc(C)nc2ccc(NC(=O)Nc3ccc4nc(C)cc(OC)c4c3)cc12 , I see its inhibition listed as 79

Looking up OCc1ccc(-c2cncc(Nc3cccc(Cl)c3)c2)cc1 , I see its inhibition listed as 4

Looking up CN(C)CCN(Cc1ccc(-c2ccc(CNCCc3ccccc3)cc2)nc1)C(=O)CCC1CCCC1 , I see its inhibition listed as 98

Looking up CCN(C1CCCCC1)S(=O)(=O)c1ccc(OC)c(N2CCN(C(=O)C(Cl)(Cl)Cl)CC2)c1 , I see its inhibition listed as 0

Looking up Nc1nc(N)c2nc(C3CC=CCC3)c(N)nc2n1 (stereo unspecified) , I see its inhibition listed as 67

Looking up NC1=NC(CCc2ccccc2)N(c2ccc(Cl)cc2)C(N)=N1 (stereo unspecified) , I see its inhibition listed as 2

Looking up CCCCCCCN1CC[C@@H](CCCc2ccnc3ccc(OCCN4CCNCC4)cc23)[C@@H](CC)C1 , I see its inhibition listed as 82

Looking up O=C(NCCN1CCOCC1)c1ccc(O)c(-c2cccc(C(F)(F)F)c2)c1 , I see its inhibition listed as -1

Looking up CS(=O)(=O)CCOCc1ccc(-c2ccc3ncnc(Nc4ccc(OCc5cccc(F)c5)c(Cl)c4)c3c2)o1 , I see its inhibition listed as 1

* * *

Experiment: antimalarial activity against Dd2 strain (AID 2302);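 further: 0% = DMSO untreated growth and 100% = chloroquine plus artemisinin killed control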
Details: P. falciparum Dd2 in RBCs, LDH growth readout, 72 h; at 2 µM
Activity calls are given as the source filed them.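 Rule for the calls: active = growth inhibition above 50% at the single 2 µM test dose, taken to imply half-maximal potency below 2 µM; inactive = the rest.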
Entry note: the call must match one of active, inactive

Would you please look over these solved cases?
1) CC[C@H]1CN(CCCC(=O)c2ccccc2)CC[C@H]1CCCc1ccnc2ccc(OC(=O)c3ccccc3)cc12; active
2) N#Cc1ccc2c(c1)CN(CCC1CCC(NC(=O)c3cc4cnccc4[nH]3)CC1)CC2 (stereo not drawn); inactive

Then there is this compound:
[in] # outcome recorded in this test, key = CC(C)C[C@H](Nc1ccnc(NCC2CCCCC2)n1)C(=O)Nc1ccccc1
[out] inactive

* * *

Assay: inhibition of 3D7 malaria parasite growth – strain 3D7 (AID 2306);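 further: 0% = DMSO wells and 100% = chloroquine plus artemisinin control wells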
Conditions: P. falciparum 3D7 erythrocytic growth, LDH absorbance, 72 h; at 2 µM; active compounds read high
Each entry below carries its recorded growth inhibition.
Numbers only here, please. The scale is %.

Some solved entries appear below for comparison.
1. COc1cccc(NC(=O)CSc2nc(-c3ccccc3Cl)ns2)c1; 99
2. CCCCCCCc1c(C)[nH]c2c(OC)cccc2c1=O; 89
3. N#Cc1ccc2c(c1)CCN(CCC1CCC(NC(=O)/C=C/c3cc(Br)cs3)CC1)CC2 (stereo unspecified); 93
4. Nc1ccc2[nH]cc(C3CCN(CC4CCC(NC(=O)/C=C/c5ccccc5Cl)CC4)CC3)c2n1 (stereo unspecified); 100
5. CC(C)c1ccc(OCCCON2C(N)=NC(N)=NC2(C)C)cc1; 93

Looking up Cc1ncc([N+](=O)[O-])n1CCOC(=O)NC(NCC1COc2ccccc2O1)C(Cl)(Cl)Cl (stereo unspecified) , I see its growth inhibition listed as 101

Looking up COc1ccc2cc(-c3nc(-c4c(Cl)cccc4Cl)[nH]c3-c3ccnc(NCCCN4CCCCC4C)c3)ccc2c1 (stereo unspecified) , I see its growth inhibition listed as 94

Looking up CC1CN(CC(O)Cn2c3ccc(Br)cc3c3cc(Br)ccc32)CC(C)O1 (stereo unspecified) , I see its growth inhibition listed as 102

* * *

Assay: antimalarial activity against Dd2 strain (AID 2302);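 further: 0% = DMSO untreated growth and 100% = chloroquine plus artemisinin killed control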
Details: P. falciparum Dd2 in RBCs, LDH growth readout, 72 h; at 2 µM; active compounds read high
Each entry below carries its recorded growth inhibition.
Numbers only here, please. The scale is %.

1. O=C(NCc1cccnc1)C(c1cc2ccccc2o1)N1CCN(C(c2ccccc2)c2ccccc2)CC1 (stereo not drawn); 81
2. COc1ccc(C(=O)NCc2ccccc2-c2ccc(C(C)(C)C)cc2)cc1O; 97
3. CCCCc1ccc2[nH]cc(C(=O)OCC)c(=O)c2c1; 96
4. O=C(Nc1cccc(N2CCC(NCCCc3ccncc3)CC2)c1)c1cccc(C(F)(F)F)c1; 50
5. COc1cccc(NC(=O)Nc2ccc(Nc3nc(C)cc(N4CCCC4)n3)cc2)c1; 100

Looking up c1cc(-c2ccc(CNCc3ccsc3)cc2)cc(-c2nc3ccccc3[nH]2)c1 , I see its growth inhibition listed as 82

Looking up CC(O)C1CCCCN1C(=O)c1ccc(-c2ccc(-c3nc4ccc(F)cc4[nH]3)cc2)cc1 (stereo not drawn) , I see its growth inhibition listed as 99

* * *

Assay: inhibition of 3D7 malaria parasite growth – strain 3D7 (AID 2306);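 further: 0% = DMSO wells and 100% = chloroquine plus artemisinin control wells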
Conditions: P. falciparum 3D7 erythrocytic growth, LDH absorbance, 72 h; at 2 µM; active compounds read high
Each entry below carries its recorded growth inhibition.
Numbers only here, please. The scale is %.

Some solved entries appear below for comparison.
1) O=C(Cn1c(SCc2cccc(F)c2F)cc(=O)c2ccccc21)N(CCn1ccnc1)Cc1ccc(-c2ccc(C(F)(F)F)cc2)cc1; 100
2) CC(C)CCNC(=O)C1Cc2c([nH]c3cc(Br)ccc23)C2(CCN(Cc3ccccc3)CC2)N1 (stereo not drawn); 96

Kindly review the next molecule as well.
Looking up O=C(NC1CCN(Cc2ccccc2)CC1)c1cc(-c2cccnc2)nc2ccc(Cl)cc12 , I see its growth inhibition listed as 97

* * *

Assay: antimalarial activity against Dd2 strain (AID 2302);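 further: 0% = DMSO untreated growth and 100% = chloroquine plus artemisinin killed control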
Settings: P. falciparum Dd2 in RBCs, LDH growth readout, 72 h; at 2 µM
Active and inactive are the calls of the source.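 Rule for the calls: active = growth inhibition above 50% at the single 2 µM test dose, taken to imply half-maximal potency below 2 µM; inactive = the rest.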
Entry note: the call must match one of True (active), False (inactive)

Would you please look over these solved cases?
1) COc1cc(NC(=O)Nc2ccc([N+](=O)[O-])cc2OC)c(OC)cc1Cl; False
2) Cc1c(S(=O)(=O)Nc2cccc(CCN3CCCCC3CCN3CCCC3)c2)sc2ccc(Cl)cc12 (stereo unspecified); False
3) CCCN1CCN(CCCNC(=O)c2cc3c(-c4ccc(Cl)cc4)nn(C)c3s2)CC1; False

[in] # outcome recorded in this test, key = CCc1cn(CCOC)c2ccc(C(=O)N[C@@H](Cc3ccccc3)[C@H](O)CNC(C)(C)CCCC(C)C)cc12
[out] True

[in] # outcome recorded in this test, key = Nc1ncc(-c2ccsc2)c2ccc(-c3ccc4cn[nH]c4c3)cc12
[out] False

[in] # outcome recorded in this test, key = O=C(OCc1ccccc1)N1CCc2c([nH]c3ccccc23)C1CCC(F)(F)F (stereo unspecified)
[out] True

[in] # outcome recorded in this test, key = Nc1cccc(CNCc2ccc(-c3ccc(-c4nc5ccccc5[nH]4)s3)cc2)c1
[out] True

[in] # outcome recorded in this test, key = NC(=O)c1sc(-n2cnc3ccccc32)cc1OCc1ccccc1[N+](=O)[O-]
[out] False

[in] # outcome recorded in this test, key = CC(Cc1ccc(NC(=O)c2ccc(NCCc3ccccc3)cc2)cc1)NCCc1cccc(Cl)c1 (stereo unspecified)
[out] False

[in] # outcome recorded in this test, key = CCc1ccc(N2C(=O)C3C(Cc4ccc(OC(C)(C)C)cc4)NC4(C(=O)N(Cc5ccccc5)c5ccc(F)cc54)C3C2=O)cc1 (stereo unspecified)
[out] False

[in] # outcome recorded in this test, key = CC(=O)Oc1cc(C)ccc1C1CCN(CCCCNC(=O)c2ccc(-c3ccc(C(F)(F)F)cc3)cc2)CC1
[out] True

[in] # outcome recorded in this test, key = Cc1cc(N(C)C)nc(Nc2ccc(NC(=O)c3ccc(F)cc3)cc2)n1
[out] False

[in] # outcome recorded in this test, key = CNc1nc(NN=Cc2cc([N+](=O)[O-])c(Cl)cc2Cl)nc(Nc2cccc(C(F)(F)F)c2)n1
[out] True

[in] # outcome recorded in this test, key = O=C(Nc1cccc(CN2CCCN(Cc3ccc(F)cc3)CC2)c1)c1cc2ccccc2s1
[out] False

[in] # outcome recorded in this test, key = O=C(Cc1cnc[nH]1)Nc1cccc(-c2ccc(-c3nc4ccccc4[nH]3)cc2)c1
[out] True

[in] # outcome recorded in this test, key = Cc1nc2ccc(-c3nc4ccc(N)cc4[nH]3)cc2[nH]1
[out] True

[in] # outcome recorded in this test, key = Cc1cc(C(=O)CN2C(=O)NC(C)(c3cccc4ccccc34)C2=O)c(C)n1Cc1ccco1 (stereo unspecified)
[out] False

* * *

Test: human hepatoma cell viability loss – ATP luminescence, cytotoxicity control for P. falciparum antimalarial project, primary screen (AID 2303);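 further: 0% = DMSO wells and 100% = digitonin-killed cells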
Details: HepG2 viability, 24-48 h, at 10 µM, active compounds read high
Each entry below carries its recorded inhibition.
Numbers only here, please. The scale is %.

1. COc1ccccc1-c1csc(C(=O)NC2CCCCN(Cc3ccc(C(C)(C)C)cc3)C2)c1 (stereo not given); 13
2. CNC(=O)c1cnc(Nc2ccc(N3CCOCC3)cc2)nc1Nc1cccc(OC)c1; 2
3. CN(C)CC(=O)N(Cc1ccc(Cl)c(Cl)c1)Cc1csc(-c2ccc(CNCc3ccccc3)cc2)n1; 30

Looking up COc1ccc(C=NNc2cc(C)nc3c(C)cccc23)c2ccccc12 , I see its inhibition listed as 3

Looking up CC1(C)N=C(N)NC(Nc2ccc(F)c(F)c2)=N1 , I see its inhibition listed as 59

Looking up CCCCCCCc1c(C)[nH]c2c(OC)cccc2c1=O , I see its inhibition listed as -5

Looking up O=C(NCC1CCC(C(=O)NC2CCCc3ccccc32)CC1)c1ccc(O)c(-c2cccc([N+](=O)[O-])c2)c1 (stereo not given) , I see its inhibition listed as 2

Looking up Cc1ccc(C(=O)Nc2ccc(F)c(F)c2F)cc1S(=O)(=O)N1CCCCC1 , I see its inhibition listed as 3

Looking up COc1cc(CCNc2nc(NCc3cccc4ccccc34)nc(N3CCC(N)CC3)n2)ccc1O , I see its inhibition listed as 16

Looking up COc1ccc(Nc2nccc(N3CCC(NC(=O)Nc4cc(C)ccc4C)C3)n2)cc1 (stereo not given) , I see its inhibition listed as 10

Looking up Nc1c(I)cc(C(=O)Nc2ccc3nc4c(c(N)c3c2)CCCC4)cc1I , I see its inhibition listed as 40

Looking up CN(C)Cc1cccc(-c2ccc(NC(=O)c3ccc4c(=O)n(C5CCCCC5)cnc4c3)cc2)c1 , I see its inhibition listed as 92
